Entries below carry reported IC50 on SYK (Homo sapiens, UniProt P43405).

- Molecule: "Cc1cc(Nc2nccc(-n3cc(CN4CC(O)C4)c(C4CC4)n3)n2)cc(C)c1OCCO [Compound 151, reference compound]"
  IC50: "201 to 1000 nM"
- Molecule: "C=CC(=O)Nc1cc(Nc2ncc(C)c(-n3cc(CN4C[C@H](O)[C@H](OC)C4)cn3)n2)c(OC)cc1N(C)CCN(C)C"
  IC50: "> 1000 nM"
- Molecule: "C=CC(=O)Nc1cc(Nc2nccc(-n3cc(CN4CCC4)c(-c4ccc(F)cc4)n3)n2)c(OC)cc1N1CCOCC1"
  IC50: "> 1000 nM"
- Molecule: "C=CC(=O)Nc1cc(Nc2nccc(-n3cc(CN4CCC4)c(-c4ccccc4)n3)n2)c(OC)cc1N(C)CCOC"
  IC50: "> 1000 nM"
- Molecule: "C=CC(=O)Nc1cc(Nc2nccc(-n3cc(CN4CCC4)c(C4CC4)n3)n2)c(OC)cc1N1CCC1"
  IC50: "> 1000 nM"

Could you now consider this next molecule?
For the molecule shown here, C=CC(=O)Nc1cc(Nc2ncc(C)c(-n3cc(CN4CCC4)c(C4CC4)n3)n2)c(OC)cc1N1CCOCC1 , give the reported IC50.
201 to 1000 nM

====

Target Under Test: EGFR mutant L858R (Homo sapiens, UniProt P00533, L858R)
Construct: truncated human JAK3, EGFR mutants such as del E746-A750; purchased Carna Biosciences
Sequence (P00533 669-1210 L858R limits assumed): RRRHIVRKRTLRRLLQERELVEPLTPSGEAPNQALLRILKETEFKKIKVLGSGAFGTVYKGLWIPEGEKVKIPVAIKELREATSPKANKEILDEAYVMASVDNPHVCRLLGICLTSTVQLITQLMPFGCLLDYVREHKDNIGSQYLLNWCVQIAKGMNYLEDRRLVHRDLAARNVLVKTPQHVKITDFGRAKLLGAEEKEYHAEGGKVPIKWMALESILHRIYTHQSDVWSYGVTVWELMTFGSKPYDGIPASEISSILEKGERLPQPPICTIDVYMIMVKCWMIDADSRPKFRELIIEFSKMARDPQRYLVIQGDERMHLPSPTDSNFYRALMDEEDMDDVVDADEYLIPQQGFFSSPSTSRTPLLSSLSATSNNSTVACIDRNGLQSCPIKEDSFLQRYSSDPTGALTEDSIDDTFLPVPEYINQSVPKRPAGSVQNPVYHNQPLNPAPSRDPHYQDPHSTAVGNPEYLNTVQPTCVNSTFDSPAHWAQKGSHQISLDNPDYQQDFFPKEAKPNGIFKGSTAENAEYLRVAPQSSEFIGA
Assay: Kinase inhibition assay, EGFR L858R;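 note: truncated human EGFR L858R kinase with compound preincubation, ULight-PolyGT peptide phosphorylation read by Europium-antibody Lance detection, IC50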
Type: biochemical
Condition Parameters: read-out: EGFR mutants L858R
Recorded Metric: IC50

Some solved cases for reference:
- Compound: "C=CC(=O)Nc1cc(Nc2nccc(-n3cc(CN(C)C)c(-c4cccs4)n3)n2)c(OC)cc1N1CCOCC1"
  IC50: "< 0.02 µM"
- Compound: "C=CC(=O)Nc1cc(Nc2ncc(C)c(-n3cc(CN(C)C)c(C(C)(C)C)n3)n2)c(OC)cc1N1CCOCC1"
  IC50: "< 0.02 µM"
- Compound: "C=CC(=O)Nc1cc(Nc2ncc(C)c(-n3cc(CN4CC(O)C4)cn3)n2)c(OC)cc1N1CCOCC1"
  IC50: "< 0.02 µM"

Which value of IC50 has been reported for C=CC(=O)Nc1cc(Nc2ncc(C)c(-n3cc(C)c(CN4CC(O)C4)c3)n2)c(OC)cc1N1CCOCC1 in the records?
0.02 to 0.2 µM

Let us now turn to C=CC(=O)Nc1cc(Nc2nccc(-n3cc(CN4CCC4)c(-c4ccccc4)n3)n2)c(OC)cc1N1CCN(C(C)=O)CC1
< 0.02 µM

How about Cc1cc(Nc2nccc(-n3cc(CN4CC[C@@H](O)C4)c(C)n3)n2)cc(C)c1OCCN1CCCC1 [Compound 148, reference compound] ?
> 1 µM

====

Readings of Selectivity over wildtype, Wildtype vs mutant H2073/H1975 (fold) for the listed compounds
System: H1975 (EGFR L858R/T790M mutant)
Assay: Cell viability assay, H1975;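 note: NSCLC cells whose survival relies on EGFR L858R/T790M, exposed 72 h to serially diluted compound, ATP-based viability readout, with the H2073 line (wildtype EGFR dependent) as wildtype comparator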
Format: cell-based
Condition Parameters: cellular potency ratio

These recorded examples may help you get a feel for the data.
- Compound Structure: "C=CC(=O)Nc1cc(Nc2ncc(C)c(-n3cc(CN4CCC4)cn3)n2)c(OC)cc1N(C)CCN(C)C"
  Value Observed: ">200 fold"
- Compound Structure: "C=CC(=O)Nc1cc(Nc2ncc(C)c(-n3cc(CN4CCC4)cn3)n2)c(OC)cc1N1CCN(C)CC1"
  Value Observed: "20-100 fold"

Shift focus to the following entry.
Looking for the measured Selectivity over wildtype, Wildtype vs mutant H2073/H1975 (fold) of C=CC(=O)Nc1cc(Nc2nccc(-n3cc(CN4CCC4)c(C)n3)n2)c(OC)cc1N1CCOCC1 , can you help?
20-100 fold

====

Reported IC50 is given for each of the following molecules.
Target Under Test: EGFR mutant T790M (Homo sapiens, UniProt P00533, T790M)
Construct: truncated human JAK3, EGFR mutants such as del E746-A750
Sequence (P00533 669-1210 T790M limits assumed): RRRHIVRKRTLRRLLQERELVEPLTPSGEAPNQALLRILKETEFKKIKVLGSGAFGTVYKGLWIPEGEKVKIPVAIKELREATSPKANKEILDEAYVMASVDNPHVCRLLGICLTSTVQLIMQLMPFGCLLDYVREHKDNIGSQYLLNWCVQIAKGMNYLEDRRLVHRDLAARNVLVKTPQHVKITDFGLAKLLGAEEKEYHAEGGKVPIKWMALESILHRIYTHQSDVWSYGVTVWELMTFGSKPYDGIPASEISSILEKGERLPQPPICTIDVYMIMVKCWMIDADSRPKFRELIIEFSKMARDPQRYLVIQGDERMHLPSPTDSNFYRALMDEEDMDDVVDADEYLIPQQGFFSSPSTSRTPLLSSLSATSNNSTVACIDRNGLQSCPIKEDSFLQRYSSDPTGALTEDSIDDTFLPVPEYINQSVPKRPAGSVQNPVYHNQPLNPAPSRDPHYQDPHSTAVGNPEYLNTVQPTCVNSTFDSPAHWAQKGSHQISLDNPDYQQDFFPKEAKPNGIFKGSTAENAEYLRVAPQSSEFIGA
Assay: Kinase inhibition assay, EGFR mutant T790M;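 note: truncated human EGFR mutant enzyme preincubated two hours with compound, then ATP plus ULight-PolyGT peptide for one hour, Europium-labeled antibody LANCE detection, IC50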
Condition Parameters: biochemical potency

- Molecule: "C=CC(=O)Nc1cc(Nc2nccc(-n3cc(CN4CCC4)c(C(C)C)n3)n2)c(OC)cc1N(C)C1COC1 [Compound 115]"
  Recorded Metric: "IC50"
  Value Observed: "< 20 nM"

GET /values?readout=IC50&item= C=C(F)C(=O)Nc1cc(Nc2nccc(-n3cc(CN4CCC4)c(-c4ccccc4)n3)n2)c(OC)cc1N1CCOCC1 [Compound 159, reference compound]
> 1000 nM

====

Test system: H2073 (EGFR wildtype)
Assay: Cell viability assay, H2073;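 note: NSCLC cell line whose survival relies on wildtype EGFR, treated with serially diluted compound, cytotoxic effect judged from remaining cell viability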
Type: cell-based
Condition Parameters: NCI-H2073; cellular potency; 72-hour incubation; ATPLite
Each item that follows carries a reported IC50.

Guide cases for IC50, answers given:
- Compound: "CC/C=C/C(=O)Nc1cc(Nc2nccc(-n3cc(CN(C)C)c(-c4ccccc4)n3)n2)c(OC)cc1N1CCOCC1 [Compound 155, reference compound]"
  Recorded Metric: "IC50"
  Value Observed: "> 1000 nM"
- Compound: "C=CC(=O)Nc1cc(Nc2nccc(-n3cc(CN(C)C)c(-c4ccccc4)n3)n2)c(OC)cc1N1CCOCC1"
  Recorded Metric: "IC50"
  Value Observed: "> 1000 nM"
- Compound: "C=CC(=O)Nc1cc(Nc2nccc(-n3cc(CN(C)C)c(-c4ccccc4)n3)n2)c(OC)cc1N1CCC1"
  Recorded Metric: "IC50"
  Value Observed: "20 to 200 nM"
- Compound: "C=CC(=O)Nc1cc(Nc2ncc(C)c(-n3cc(CN4CCC4)c(C)n3)n2)c(OC)cc1N1CCOCC1"
  Recorded Metric: "IC50"
  Value Observed: "> 1000 nM"
- Compound: "C=CC(=O)Nc1cc(Nc2nccc(-n3cc(CN(C)C)c(C(C)(C)C)n3)n2)c(OC)cc1N1CCOCC1"
  Recorded Metric: "IC50"
  Value Observed: "201 to 1000 nM"
- Compound: "Cc1cc(Nc2nccc(-n3cc(CN4CC(O)C4)c(C)n3)n2)cc(C)c1OCCO [Compound 149, reference compound]"
  Recorded Metric: "IC50"
  Value Observed: "> 1000 nM"
- Compound: "C=CC(=O)Nc1cc(Nc2ncc(C)c(-n3cc(CN4CCC4)c(C4CC4)n3)n2)c(OC)cc1N1CCOCC1"
  Recorded Metric: "IC50"
  Value Observed: "> 1000 nM"

# input for lookup
Return reported IC50; argument: C=CC(=O)Nc1cc(Nc2nccc(-n3cc(CN4CCC4)c(-c4ccccc4)n3)n2)c(OC)cc1N1CCOCC1
> 1000 nM

====

Data export: pIC50 values recorded with UniProt:P43405.
pIC50: −log10 of the molar value.

- Compound: "C=CC(=O)Nc1cc(Nc2ncc(C)c(-n3cc(CN4CC(O)C4)c(C)n3)n2)c(OC)cc1N(C)CCN(C)C [Compound 31]"
  pIC50: "6.70 to 7.70"

Looking for the measured pIC50 of C=CC(=O)Nc1cc(Nc2nccc(-n3cc(CN4CCC4)c(C(C)C)n3)n2)c(OC)cc1N1CCCC1 [Compound 117] , can you help?
< 6.00

Same read-out for C=CC(=O)Nc1cc(Nc2ncc(C)c(-n3cc(CN(C)C)c(C)n3)n2)c(OC)cc1N1CCOCC1 [Compound 75] ?
6.70 to 7.70

Can you handle C=CC(=O)Nc1cc(Nc2nccc(-n3cc(CN4CCC4)c(C4CC4)n3)n2)c(OC)cc1N1CCOCC1 [Compound 55] next?
< 6.00

Do the same for C=CC(=O)Nc1cc(Nc2nccc(-n3cc(CN4CCC4)c(C)n3)n2)c(OC)cc1-c1ccccc1 [Compound 65] please
< 6.00

Further, for C=CC(=O)Nc1cc(Nc2ncc(C)c(-n3cc(CN4CCC4)cn3)n2)c(OC)cc1C1=CCN(C)CC1 [Compound 64] ?
< 6.00

Entry to check: C=CC(=O)Nc1cc(Nc2ncc(F)c(-n3cc(CN4CCC4)c(C)n3)n2)c(OC)cc1N1CCOCC1 [Compound 62]
< 6.00

# iterate: CCC(=O)Nc1cc(Nc2nccc(-n3cc(CN4CCC4)c(-c4ccccc4)n3)n2)c(OC)cc1N1CCOCC1 [Compound 158, reference compound]
< 6.00

====

Target Under Test: EGFR mutant Del19 (E746-A750) (Homo sapiens, UniProt P00533, DEL746-750)
Construct: truncated human JAK3, EGFR mutants such as del E746-A750; purchased Carna Biosciences
Sequence (P00533 with tags, fused parts or gaps DEL746-750 limits assumed): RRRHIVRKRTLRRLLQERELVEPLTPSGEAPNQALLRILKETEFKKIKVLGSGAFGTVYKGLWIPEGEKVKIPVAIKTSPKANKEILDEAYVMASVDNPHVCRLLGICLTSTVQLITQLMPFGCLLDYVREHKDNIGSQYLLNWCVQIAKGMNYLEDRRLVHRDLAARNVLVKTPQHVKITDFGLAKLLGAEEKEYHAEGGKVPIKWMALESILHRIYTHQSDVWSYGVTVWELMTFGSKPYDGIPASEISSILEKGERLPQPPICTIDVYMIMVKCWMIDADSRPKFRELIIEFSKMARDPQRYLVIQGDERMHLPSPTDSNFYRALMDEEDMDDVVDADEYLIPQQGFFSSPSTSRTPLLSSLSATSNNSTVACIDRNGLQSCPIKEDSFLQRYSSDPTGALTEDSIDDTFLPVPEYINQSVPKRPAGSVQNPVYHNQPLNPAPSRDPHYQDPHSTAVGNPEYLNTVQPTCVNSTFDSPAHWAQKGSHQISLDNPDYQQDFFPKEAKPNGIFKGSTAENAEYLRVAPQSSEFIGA
Assay: Kinase inhibition assay, EGFR del E746-A750;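 note: truncated human EGFR mutant kinase, two-hour preincubation with compound, then one-hour reaction with ATP and ULight-PolyGT peptide, LANCE Europium-antibody phosphorylation readout, IC50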
Type: biochemical
Condition Parameters: read-out: EGFR mutants Del19 (E746-A750)
pIC50: −log10 of the molar value.
Recorded Metric: pIC50

For orientation, consider the following solved cases.
- Compound: "C=CC(=O)Nc1cc(Nc2ncc(C)c(-n3cc(CN4CC(O)C4)cn3)n2)c(OC)cc1N1CCOCC1 [Compound 19]"
  Target Under Test: "EGFR mutant Del19 (E746-A750) (Homo sapiens, UniProt P00533, DEL746-750)"
  Value Observed: "> 7.70"
- Compound: "C=CC(=O)Nc1cc(Nc2nccc(-n3cc(CN4CCC4)cn3)n2)c(OC)cc1N1CCOCC1 [Compound 34]"
  Target Under Test: "EGFR mutant Del19 (E746-A750) (Homo sapiens, UniProt P00533, DEL746-750)"
  Value Observed: "> 7.70"
- Compound: "CC/C=C\\CC(=O)Nc1cc(Nc2nccc(-n3cc(CN(C)C)c(-c4ccccc4)n3)n2)c(OC)cc1N1CCOCC1 [Compound 156, reference compound]"
  Target Under Test: "EGFR mutant Del19 (E746-A750) (Homo sapiens, UniProt P00533, DEL746-750)"
  Value Observed: "< 6.00"

Query: pIC50; subject: C=C(F)C(=O)Nc1cc(Nc2nccc(-n3cc(CN4CCC4)c(-c4ccccc4)n3)n2)c(OC)cc1N1CCOCC1 [Compound 159, reference compound]
< 6.00

Now this one: C=CC(=O)Nc1cc(Nc2nccc(-n3cc(CN4CCC4)c(-c4ccc(F)cc4)n3)n2)c(OC)cc1N1CCOCC1 [Compound 81]
6.70 to 7.70

Cool, now C=CC(=O)Nc1cc(Nc2nccc(-n3cc(CO)c(-c4ccccc4)n3)n2)c(OC)cc1N1CCOCC1 [Compound 91]
> 7.70

Now consider C=CC(=O)Nc1cc(Nc2nccc(-n3cc(CN(C)CC)c(-c4ccccc4)n3)n2)c(OC)cc1N1CCOCC1 [Compound 92] and answer again.
> 7.70

Check C=CC(=O)Nc1cc(Nc2nccc(-n3cc(CN4CC(OC)C4)c(C)n3)n2)c(OC)cc1N1CCOCC1 [Compound 44] too.
6.70 to 7.70

Next compound: C=CC(=O)Nc1cc(Nc2nccc(-n3cc(CN(C)C)c(C4CC4)n3)n2)c(OC)cc1N1CCOCC1 [Compound 74]
> 7.70

Thanks! And C=CC(=O)Nc1cc(Nc2nccc(-n3cc(CN(C)C)c(C)n3)n2)c(OC)cc1N1CCOCC1 [Compound 46] ?
> 7.70

Same read-out for C=CC(=O)Nc1cc(Nc2nccc(-n3cc(CN4CCC4)c(-c4ccccc4)n3)n2)c(OC)cc1N1CCC1 [Compound 87] ?
> 7.70

Try the compound C=CC(=O)Nc1cc(Nc2ncc(Cl)c(-n3cc(CN(C)C)c(C)n3)n2)c(OC)cc1N1CCOCC1 [Compound 52]
> 7.70

Note, next up: C=CC(=O)Nc1cc(Nc2nccc(-n3cc(CN(C)C)c(-c4ccccc4)n3)n2)c(OC)cc1N(C)C [Compound 83]
> 7.70

Could you do the same for Cc1cc(Nc2nccc(-n3cc(CN4CC(O)C4)c(C4CC4)n3)n2)cc(C)c1OCCO [Compound 151, reference compound] , please?
< 6.00

Follow-up item: C=CC(=O)Nc1cc(Nc2nccc(-n3cc(CN(C)C)c(-c4cccnc4)n3)n2)c(OC)cc1N1CCOCC1 [Compound 128]
> 7.70

Could you do the same for C=CC(=O)Nc1cc(Nc2nccc(-n3cc(CN(C)C)c(-c4cc(C)ccc4C)n3)n2)c(OC)cc1N1CCOCC1 [Compound 89] , please?
6.70 to 7.70

# iterate: C=CC(=O)Nc1cc(Nc2nccc(-n3cc(CN(C)C)c(C4CC4)n3)n2)c(OC)cc1N1CCN(C(C)=O)CC1 [Compound 129]
> 7.70

Input C=CC(=O)Nc1cc(Nc2nccc(-n3cc(CN4CCC4)c(-c4ccccc4)n3)n2)c(OC)cc1N1CCCC1 [Compound 99]
> 7.70

Then what about the compound COc1cc(N2CCOCC2)c([N+](=O)[O-])cc1Nc1nccc(-n2cc(CN(C)C)c(-c3ccccc3)n2)n1 [Compound 152, reference compound] ?
< 6.00

Please do the same for C=CC(=O)Nc1cc(Nc2ncc(C)c(-n3cc(CN(C)C)cn3)n2)c(OC)cc1N1CCOCC1 [Compound 22] as well.
> 7.70

What do we get for C=CC(=O)Nc1cc(Nc2nccc(-n3cc(CN4CCC4)c(-c4cccs4)n3)n2)c(OC)cc1N1CCOCC1 [Compound 118] ?
> 7.70
